// compounds with pKi on Tyrosine-protein phosphatase non-receptor type 1 (Homo sapiens, UniProt P18031), multi-source literature
Friendly reminder that pKi comes from taking -log10 of the concentration in mol/L.

(Q) Give pKi for CC1(C(=O)O)CCC2(C)CCC3(C)C(=CC(=O)C4C5(C)Cc6cnn(-c7ccc(C(F)(F)F)cc7)c6C(C)(C)C5CCC43C)C2C1 (stereo not drawn)
(A) 5.34

(Q) Using known records, supply pKi for COc1cc(O)cc2c1C(=O)c1c(cc(C)c(C(=O)OCC(O)CO)c1O)C2=O (stereo not drawn)
(A) 5.55

(Q) Complete the entry with pKi for CC(C)=CCc1c(O)ccc(C23Oc4cc(O)ccc4C4CC(C)=CC(c5c(O)cc(-c6cc7ccc(O)cc7o6)cc5O2)C43)c1O (stereo not drawn)
(A) 5.05

(Q) Answer with reported pKi of O=C(CSc1nc2cc(Oc3cccc4ccccc34)c(Cl)cc2[nH]1)Nc1nccs1
(A) 5.38

(Q) Quote pKi reported for Nc1ccc(NS(=O)(=O)C(F)(F)F)cc1 please.
(A) 4.77

(Q) Give pKi for CC1(C(=O)O)CCC2(C)CCC3(C)C(=CC(=O)C4C5(C)Cc6c([nH]c7ccc(C(F)(F)F)cc67)C(C)(C)C5CCC43C)C2C1 (stereo not drawn)
(A) 5.41

(Q) Given Oc1cc(O)cc(-c2cc3c4c(c(O)cc3o2)OC(c2ccc(O)cc2O)C4c2cc(O)cc(O)c2)c1 (stereo not drawn) , respond with its pKi.
(A) 5.81

(Q) Determine its reported pKi: Oc1cc(O)cc(-c2cc3cc4c(cc3o2)OC(c2cc(O)cc(O)c2)C(c2ccc(O)cc2O)O4)c1 (stereo not drawn)
(A) 5.84

(Q) Look up and state reported pKi for CC(C)=CCc1c(O)ccc(C(=O)[C@H]2[C@@H](c3c(O)cc(-c4cc5ccc(O)cc5o4)cc3O)C=C(C)C[C@@H]2c2ccc(O)cc2O)c1O
(A) 5.36
